# IC50 listing for each entry below
# MEASUREMENT TARGET: HCV RNA-dependent RNA polymerase (NS5B) (Hepatitis C virus genotype 1b (isolate BK) (HCV), UniProt P26663)
# Sequence (P26663 2420-3010): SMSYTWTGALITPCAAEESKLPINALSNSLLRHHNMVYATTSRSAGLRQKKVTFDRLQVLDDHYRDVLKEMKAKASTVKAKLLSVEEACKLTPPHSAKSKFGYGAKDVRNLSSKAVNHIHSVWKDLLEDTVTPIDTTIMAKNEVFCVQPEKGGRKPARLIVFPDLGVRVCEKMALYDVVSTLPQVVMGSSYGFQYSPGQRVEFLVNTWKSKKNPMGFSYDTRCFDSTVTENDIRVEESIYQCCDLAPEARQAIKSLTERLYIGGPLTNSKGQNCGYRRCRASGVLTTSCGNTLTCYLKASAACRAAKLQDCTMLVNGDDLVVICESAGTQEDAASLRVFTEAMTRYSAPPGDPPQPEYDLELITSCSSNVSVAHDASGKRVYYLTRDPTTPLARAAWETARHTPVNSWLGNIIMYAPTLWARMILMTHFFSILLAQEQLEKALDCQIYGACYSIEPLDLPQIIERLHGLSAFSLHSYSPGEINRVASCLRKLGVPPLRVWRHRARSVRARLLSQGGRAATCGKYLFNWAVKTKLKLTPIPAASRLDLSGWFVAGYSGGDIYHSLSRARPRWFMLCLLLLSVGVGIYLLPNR
# PROCEDURE DETAILS: RNA-Dependent RNA HCV NS5B (polymerase) Assay and IC50 Determination
# Assay type: biochemical
# EXPERIMENTAL CONTEXT: purified HCV NS5B polymerase, polyA:U16 substrate, 32P-UTP incorporation; read-out: IC50
RECORDED METRIC: IC50

CCOC(=O)c1cc(COCCOCCN(c2cc3oc(-c4ccc(F)cc4)c(C(=O)NC)c3cc2C2CC2)S(C)(=O)=O)ccc1F | > 1000 nM
CNC(=O)c1c(-c2ccc(F)cc2)oc2cc(N(CCOCCOCc3cccc(C(=O)O)c3)S(C)(=O)=O)c(C3CC3)cc12 | 100 to 1000 nM
CNC(=O)c1c(-c2ccc(F)cc2)oc2cc(N(CCCCOCCc3ccc(C(=O)O)cc3)S(C)(=O)=O)c(C3CC3)cc12 | 100 to 1000 nM
CNC(=O)c1c(-c2ccc(F)cc2)oc2cc(N(CC(=O)NCC(=O)NCc3cccc(C(=O)/C=C(\O)C(=O)O)c3)S(C)(=O)=O)c(C3CC3)cc12 [Compound 09-14A] | 100 to 1000 nM
CNC(=O)c1c(-c2ccc(F)cc2)oc2cc(N(CCOCCOCCc3ccc(C(=O)O)cc3)S(C)(=O)=O)c(C3CC3)cc12 | 100 to 1000 nM
CNC(=O)c1c(-c2ccc(F)cc2)oc2cc(N(CCOCCOCc3ccccc3C(=O)O)S(C)(=O)=O)c(C3CC3)cc12 | 100 to 1000 nM
CNC(=O)c1c(-c2ccc(F)cc2)oc2cc(N(CCOCCOCc3ccc(C(=O)OC)c(N)c3)S(C)(=O)=O)c(C3CC3)cc12 | 100 to 1000 nM
CNC(=O)c1c(-c2ccc(F)cc2)oc2cc(N(CCOCCOCCOCC(N)=O)S(C)(=O)=O)c(C3CC3)cc12 | 100 to 1000 nM
CNC(=O)c1c(-c2ccc(F)cc2)oc2cc(N(CCCCCOCc3ccc(C(=O)O)cc3)S(C)(=O)=O)c(C3CC3)cc12 | 100 to 1000 nM
CNC(=O)c1c(-c2ccc(F)cc2)oc2cc(N(CCNC(=O)CNC(=O)CCCC(=O)O)S(C)(=O)=O)c(C3CC3)cc12 | > 1000 nM
CNC(=O)c1c(-c2ccc(F)cc2)oc2cc(N(CCOCCOCCOC3(C(=O)OC(C)(C)C)CCCC3)S(C)(=O)=O)c(C3CC3)cc12 | > 1000 nM
CNC(=O)c1c(-c2ccc(F)cc2)oc2cc(N(CCOCCOCCOCc3ccc(C(=O)O)cc3)S(C)(=O)=O)c(C3CC3)cc12 [Compound 06-7E] | 100 to 1000 nM
CNC(=O)c1c(-c2ccc(F)cc2)oc2cc(N(CCOCCOCc3ccc(C(=O)OCSC)cc3)S(C)(=O)=O)c(C3CC3)cc12 | 100 to 1000 nM

----------
# MEASUREMENT TARGET: HCV RNA-dependent RNA polymerase (NS5B) (Hepatitis C virus genotype 1b (isolate BK) (HCV), UniProt P26663)
# PROCEDURE DETAILS: RNA-Dependent RNA HCV NS5B (polymerase) Assay and IC50 Determination
# Type: biochemical
# EXPERIMENTAL CONTEXT: purified HCV NS5B polymerase, polyA:U16 substrate, 32P-UTP incorporation; read-out: IC50
RECORDED METRIC: IC50

CNC(=O)c1c(-c2ccc(F)cc2)oc2cc(N(CC(=O)N(C)CC(=O)NCc3cccc(C(=O)C=C(O)C(=O)O)c3)S(C)(=O)=O)c(C3CC3)cc12 [Compound 09-14B] | > 1000 nM
CNC(=O)c1c(-c2ccc(F)cc2)oc2cc(N(CCOCCSC(C)=O)S(C)(=O)=O)c(C3CC3)cc12 [Compound 21-5] | < 100 nM
CNC(=O)c1c(-c2ccc(F)cc2)oc2cc(N(CCOCCOCCOCc3ccc(C(=O)OC)cc3)S(C)(=O)=O)c(C3CC3)cc12 [Compound 06-6E] | 100 to 1000 nM
